biological target: human ANT4 (Homo sapiens, UniProt Q9H0C2); experiment: ADP/ATP exchange with isolated yeast mitochondria expressing hANT4
Sequence (Q9H0C2 whole entry): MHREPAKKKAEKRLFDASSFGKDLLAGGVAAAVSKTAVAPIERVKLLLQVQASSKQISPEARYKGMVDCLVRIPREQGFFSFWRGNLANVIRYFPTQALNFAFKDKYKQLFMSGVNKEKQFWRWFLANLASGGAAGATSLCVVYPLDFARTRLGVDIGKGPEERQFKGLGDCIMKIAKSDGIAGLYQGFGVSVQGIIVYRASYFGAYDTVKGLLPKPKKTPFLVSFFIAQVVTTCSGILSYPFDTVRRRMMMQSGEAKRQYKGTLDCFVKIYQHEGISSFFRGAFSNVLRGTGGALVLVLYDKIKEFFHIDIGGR
pIC50: −log10 of the molar value.

{"Molecule": "Cc1cc(C(C#N)c2ccc(Cl)cc2)c(Cl)cc1NC(=O)c1cc(I)cc(I)c1O (stereo not shown)", "Experimental Target": "human ANT4 (Homo sapiens, UniProt Q9H0C2)", "pIC50": 4.19}

----------
target: human ANT2 (Homo sapiens, UniProt P05141); assay: ADP/ATP exchange with isolated yeast mitochondria expressing hANT2; format: biochemical; details: 10 μM, isolated yeast mitochondria, hANT2 (Fig. 2B left)
Sequence (P05141 whole entry): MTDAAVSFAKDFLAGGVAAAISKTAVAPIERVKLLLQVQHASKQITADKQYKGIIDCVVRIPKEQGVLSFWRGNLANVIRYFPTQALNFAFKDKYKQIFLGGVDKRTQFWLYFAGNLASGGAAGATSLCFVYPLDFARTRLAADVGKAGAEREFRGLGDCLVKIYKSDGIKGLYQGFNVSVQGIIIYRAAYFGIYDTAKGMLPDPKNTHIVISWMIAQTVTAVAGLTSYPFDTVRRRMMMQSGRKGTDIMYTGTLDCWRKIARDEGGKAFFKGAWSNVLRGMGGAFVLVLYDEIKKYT
Readout Label: ADP/ATP exchange activity / ADP uptake

{"Compound": "C=C1[C@@H]2CC[C@H]3[C@]4(C)C[C@H](O[C@@H]5O[C@H](CO)[C@@H](OS(=O)(=O)O)[C@H](OS(=O)(=O)O)[C@H]5OC(=O)CC(C)C)CC(C(=O)O)(C(=O)O)[C@H]4CC[C@]3(C2)[C@H]1O [cATR, carboxyatractyloside]", "Value": "completely inhibited"}
{"Compound": "COc1ccc2c(c[n+](C)c3c4cc5c(cc4ccc23)OCO5)c1OC", "Value": "reduced ADP uptake"}
{"Compound": "C=C1[C@@H]2CC[C@H]3[C@]4(C)C[C@H](O[C@@H]5O[C@H](CO)[C@@H](OS(=O)(=O)O)[C@H](OS(=O)(=O)O)[C@H]5OC(=O)CC(C)C)C[C@@H](C(=O)O)[C@H]4CC[C@]3(C2)[C@H]1O [ATR, atractyloside]", "Value": "completely inhibited"}
{"Compound": "CO[C@H](C/C=C\\C=C\\CC/C=C/C[C@H](C)/C=C/C(=C\\C(=O)O)CC(=O)O)/C(C)=C\\C=C(/C)C(=O)O", "Value": "completely inhibited"}
{"Compound": "O=C(O)c1nn(Cc2ccc(Cl)cc2Cl)c2ccccc12", "Value": "reduced ADP uptake"}

----------
target: human ANT1 (Homo sapiens, UniProt P12235); experiment: ADP/ATP exchange with Lactococcus lactis expressing hANT1; type: biochemical
Sequence (P12235 whole entry): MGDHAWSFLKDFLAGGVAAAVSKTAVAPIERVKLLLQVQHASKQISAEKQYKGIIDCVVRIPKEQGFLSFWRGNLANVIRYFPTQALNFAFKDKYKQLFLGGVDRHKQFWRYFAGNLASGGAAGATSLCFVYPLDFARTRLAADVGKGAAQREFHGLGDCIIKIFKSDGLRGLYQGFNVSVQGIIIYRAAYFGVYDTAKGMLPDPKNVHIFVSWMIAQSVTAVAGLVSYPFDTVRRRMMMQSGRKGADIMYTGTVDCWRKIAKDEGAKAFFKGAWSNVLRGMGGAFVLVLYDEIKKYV
pIC50: −log10 of the molar value.

{"Compound": "Cc1cc(C(C#N)c2ccc(Cl)cc2)c(Cl)cc1NC(=O)c1cc(I)cc(I)c1O (stereo not shown)", "pIC50": 4.82}

----------
assay: in vitro; conditions: Saccharomyces cerevisiae
pIC50: −log10 of the molar value.

{"Compound": "C[C@@H]1C[C@H]2CC[C@H](O2)[C@H](C)C(=O)O[C@@H](C)C[C@@H]2CC[C@@H](O2)[C@@H](C)C(=O)O[C@H](C)C[C@H]2CC[C@H](O2)[C@H](C)C(=O)O[C@@H](C)C[C@@H]2CC[C@@H](O2)[C@@H](C)C(=O)O1", "pIC50": "< 4.00"}
{"Compound": "Cc1cc(C(C#N)c2ccc(Cl)cc2)c(Cl)cc1NC(=O)c1cc(I)cc(I)c1O (stereo not shown)", "pIC50": "< 4.00"}
{"Compound": "CC(C)(C)c1cc(C=C(C#N)C#N)cc(C(C)(C)C)c1O", "pIC50": "< 4.00"}
{"Compound": "CN(C)c1ccc(O)c2c1C[C@H]1C[C@H]3[C@H](N(C)C)C(O)=C(C(N)=O)C(=O)[C@@]3(O)C(O)=C1C2=O", "pIC50": "< 4.00"}

Sourced from paper PMC6559718
